These data points were gathered from paper PMC12024397.

System: S. aureus strain 4-170
Conditions: broth microdilution, triplicate; isolate 4-170, no resistance profile listed
Non-standard residues stand in square brackets, D forms with d. Residues, ends and D or L forms follow the SMILES beside them. *: point of attachment. Tetradecanoyl(3R-OH) = CCCCCCCCCCC[C@@H](O)CC(=O)*; Tetradecanoyl(3S-OH) = CCCCCCCCCCC[C@H](O)CC(=O)*
endpointLabel: MIC (µg/mL)
Answer with a number only, understood to be in µg/mL.

Examples with their reported MIC follow.
CCCCCCCCCCC[C@@H](O)CC(=O)N[C@@H](Cc1c[nH]c2ccccc12)C(=O)N[C@@H](CO)C(=O)N[C@H](Cc1c[nH]c2ccccc12)C(=O)N[C@@H](Cc1ccccc1)C(=O)N[C@@H](C(=O)N[C@@H](C)C(=O)N[C@H](C(=O)O)C(C)C)[C@H](C)O [13R] ({Tetradecanoyl(3R-OH)}-WS[dW]F[dT]AV-OH)	8
CCCCCCCCCCC[C@H](O)CC(=O)N[C@@H](Cc1c[nH]c2ccccc12)C(=O)N[C@@H](CO)C(=O)N[C@H](Cc1c[nH]c2ccccc12)C(=O)N[C@@H](Cc1ccccc1)C(=O)N[C@@H](C(=O)N[C@H](C(=O)N[C@H](C(=O)O)C(C)C)C(C)C)[C@H](C)O [12S] ({Tetradecanoyl(3S-OH)}-WS[dW]F[dT]VV-OH)	8
CCCCCCCCCCC[C@H](O)CC(=O)N[C@@H](Cc1c[nH]c2ccccc12)C(=O)N[C@@H](CO)C(=O)N[C@H](Cc1c[nH]c2ccccc12)C(=O)N[C@@H](Cc1ccccc1)C(=O)N[C@@H](C(=O)N[C@@H](C)C(=O)N[C@H](C(=O)O)C(C)C)[C@H](C)O [13S] ({Tetradecanoyl(3S-OH)}-WS[dW]F[dT]AV-OH)	8

Here's the next entry for you.
Using known records, supply MIC for CCCCCCCCCCC[C@@H](O)CC(=O)N[C@@H](Cc1c[nH]c2ccccc12)C(=O)N[C@@H](CO)C(=O)N[C@H](Cc1c[nH]c2ccccc12)C(=O)N[C@@H](Cc1ccccc1)C(=O)N[C@@H](C(=O)N[C@H](C(=O)N[C@H](C(=O)O)C(C)C)C(C)C)[C@H](C)O [12R] ({Tetradecanoyl(3R-OH)}-WS[dW]F[dT]VV-OH) 4
